- Tested on: A549 NSCLC
- assay.details: NCI tumour cell line growth inhibition, 48 h
// label = condition met if TGI is not less than 20 µM, otherwise condition not met

[
  {
    "compound": "O=C(Nc1ccc(Br)cc1)c1cc(Br)cc(Br)c1O",
    "class.label": "condition not met"
  },
  {
    "compound": "C=C1C(=O)O[C@H]2[C@H]1CC/C(COC(=O)c1ccc(C(=O)O)s1)=C\\CC[C@@]1(C)O[C@@H]21",
    "class.label": "condition not met"
  },
  {
    "compound": "CN(C)Cc1cc(N=Nc2ccc(Cl)c(Cl)c2)ccc1O",
    "class.label": "condition met"
  },
  {
    "compound": "C/C(=N/O)c1cccc(Nc2nc3ccccc3c3[nH]c4ccccc4c23)c1",
    "class.label": "condition not met"
  },
  {
    "compound": "N#CC(c1ccccc1)c1cccc2ccccc12 (stereo not given)",
    "class.label": "condition met"
  },
  {
    "compound": "CN(C)CN1C(=O)S/C(=C2\\C(=O)N(CN(C)C)c3ccccc32)C1=O",
    "class.label": "condition met"
  },
  {
    "compound": "C=C1C(O)C2C(=C(CC(C)C)C13CC3)C(=O)C(C)(C)C2OC (stereo not given)",
    "class.label": "condition met"
  },
  {
    "compound": "COC(=O)c1ccc(OCc2ccc3oc(=O)c(-c4ccccc4)nc3c2)cc1",
    "class.label": "condition met"
  },
  {
    "compound": "Cc1nc2c(Br)cc(Br)cc2c(=O)n1-c1ccccc1N",
    "class.label": "condition met"
  }
]

----------
- System: IGROV1 ovarian
- assay.details: NCI tumour cell line growth inhibition, 48 h
Overview of reported TGI across a group of molecules:

[
  {
    "molecule": "Cc1ccc(-n2c(C)nc3c2C(=O)c2ccccc2C3=O)cc1",
    "TGI": "> 100 µM"
  },
  {
    "molecule": "CCOC(=O)c1c2ccc(/C=C/C(=O)OC)ccc-2c(C(=O)OCC)c1N",
    "TGI": "> 100 µM"
  },
  {
    "molecule": "O=C1c2cccc3cc([N+](=O)[O-])cc(c23)C(=O)N1CCCN1CCN(CCCN2C(=O)c3cccc4cc([N+](=O)[O-])cc(c34)C2=O)CC1",
    "TGI": "15.4 µM"
  },
  {
    "molecule": "Cn1c(=O)c2c(nc3n2CCC(=O)N3)n(C)c1=O",
    "TGI": "> 100 µM"
  },
  {
    "molecule": "CCOC(=O)/C(=C\\c1ccc(CO)o1)P(=O)(OCC)OCC",
    "TGI": "> 100 µM"
  },
  {
    "molecule": "COc1ccc2nc3c([N+](=O)[O-])ccc4c3c(c2c1)NCCN4C",
    "TGI": "4.52 µM"
  },
  {
    "molecule": "CN(C)Cc1cc(C(=O)/C=C/c2ccc(/C=C/C(=O)c3cc(CN(C)C)c(O)c(CN(C)C)c3)cc2)cc(CN(C)C)c1O",
    "TGI": "> 100 µM"
  },
  {
    "molecule": "CCCCCCCCCCCCC(SCCNC(=O)CCNC(=O)C(O)C(C)(C)COP(=O)(O)OP(=O)(O)OCC1OC(n2cnc3c(N)ncnc32)C(O)C1OP(=O)(O)O)C(=O)NCC(N)=O (configuration not stated)",
    "TGI": "> 100 µM"
  },
  {
    "molecule": "S=C1CC(c2ccc(Cl)cc2)Sc2ccccc2N1 (configuration not stated)",
    "TGI": "> 100 µM"
  },
  {
    "molecule": "CC(C)(C)N=CN1CCC(C(c2ccccc2)c2ccccc2)CC1",
    "TGI": "> 100 µM"
  },
  {
    "molecule": "CCN(CC)CCNc1ccc(N=Nc2ccc(S(N)(=O)=O)cc2)c2ccccc12",
    "TGI": "28.8 µM"
  },
  {
    "molecule": "O=S(=O)(O)c1ccc2cc(N=Nc3cc(S(=O)(=O)O)c4cccnc4c3O)ccc2c1",
    "TGI": "> 100 µM"
  },
  {
    "molecule": "Clc1ccc(OCc2nnc(CCCCCCCCc3nnc(COc4ccc(Cl)cc4Cl)o3)o2)c(Cl)c1",
    "TGI": "> 100 µM"
  },
  {
    "molecule": "CCc1cccc(C)c1NC(=O)CC1Sc2ccccc2NC1=O (configuration not stated)",
    "TGI": "> 100 µM"
  },
  {
    "molecule": "CC1(C)N=C(N)N=C(N)N1c1cccc(CSc2ccccc2)c1",
    "TGI": "25 µM"
  },
  {
    "molecule": "NC(=O)c1ccccc1NC(=O)C(=O)C(c1cnc2ccc([N+](=O)[O-])cc2n1)[N+](=O)[O-] (configuration not stated)",
    "TGI": "> 100 µM"
  },
  {
    "molecule": "Nc1ccc2c(c1)[O][Sn]([c]1ccccc1)([c]1ccccc1)[O]C2=O",
    "TGI": "29.2 µM"
  }
]

Provenance of the data: PubChem BioAssay (NCI)
